target_of_assay: PARP-1 (Homo sapiens)
Sequence (P09874 whole entry): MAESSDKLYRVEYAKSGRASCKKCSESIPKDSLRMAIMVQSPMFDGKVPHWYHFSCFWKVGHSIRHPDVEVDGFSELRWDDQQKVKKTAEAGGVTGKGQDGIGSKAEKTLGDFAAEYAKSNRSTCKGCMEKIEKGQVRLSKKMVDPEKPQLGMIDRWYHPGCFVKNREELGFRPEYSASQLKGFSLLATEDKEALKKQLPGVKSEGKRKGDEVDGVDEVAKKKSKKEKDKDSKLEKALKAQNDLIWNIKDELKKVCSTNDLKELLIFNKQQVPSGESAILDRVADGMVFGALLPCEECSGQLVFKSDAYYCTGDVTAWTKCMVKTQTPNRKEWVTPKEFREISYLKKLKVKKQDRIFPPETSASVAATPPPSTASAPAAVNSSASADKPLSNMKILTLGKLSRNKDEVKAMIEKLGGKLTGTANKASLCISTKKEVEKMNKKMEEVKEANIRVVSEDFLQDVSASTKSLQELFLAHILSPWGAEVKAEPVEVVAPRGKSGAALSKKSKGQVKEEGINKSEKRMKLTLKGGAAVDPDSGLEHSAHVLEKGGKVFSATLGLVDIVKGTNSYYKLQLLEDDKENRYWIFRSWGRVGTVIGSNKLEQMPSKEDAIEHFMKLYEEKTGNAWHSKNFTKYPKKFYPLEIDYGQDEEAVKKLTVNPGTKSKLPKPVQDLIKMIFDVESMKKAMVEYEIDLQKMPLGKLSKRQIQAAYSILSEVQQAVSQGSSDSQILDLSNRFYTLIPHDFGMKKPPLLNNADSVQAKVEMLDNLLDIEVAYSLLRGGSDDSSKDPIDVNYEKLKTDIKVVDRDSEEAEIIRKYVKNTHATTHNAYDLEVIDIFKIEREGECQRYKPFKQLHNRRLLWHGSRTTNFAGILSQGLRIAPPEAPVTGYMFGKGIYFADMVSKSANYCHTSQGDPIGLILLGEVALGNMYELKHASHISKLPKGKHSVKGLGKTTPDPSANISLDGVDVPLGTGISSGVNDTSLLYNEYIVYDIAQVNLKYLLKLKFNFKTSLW
assay_details: PARP-1 radioligand binding assay with [125I]KX1 in OVCAR8 cells
pIC50: −log10 of the molar value.
// pIC50 lookup, one value per entry

molecule	pIC50
O=C(c1cc(Cc2n[nH]c(=O)c3ccccc23)ccc1F)N1CC2(CC(c3ccc(F)cc3)C2)C1 [Compound 17]	8.55
O=C(c1cc(Cc2n[nH]c(=O)c3ccccc23)ccc1F)N1CCC(c2ccc(F)cc2)CC1 [Compound 11b]	8.89
O=C(c1cc(Cc2n[nH]c(=O)c3ccccc23)ccc1F)N1CC2(C1)CN(c1ccc(F)cc1)C2 [Compound 14]	9.52
O=C(c1cc(Cc2n[nH]c(=O)c3ccccc23)ccc1F)N1CCN(c2ccc(F)cc2)CC1 [Compound 11a]	9.22

###

target_of_assay: PARP-1 (Homo sapiens)
assay_details: PARP-1 radioligand binding assay with [125I]KX1 in OVCAR8 cells
assay_readout: IC50 (nM)

molecule	assay_readout	units_label	recorded_value
O=C(c1cc(Cc2n[nH]c(=O)c3ccccc23)ccc1F)N1CCCC(OCCF)CC1 (stereo not drawn) [Compound 9f]	IC50	nM	5.6
O=C(c1cc(Cc2n[nH]c(=O)c3ccccc23)ccc1F)N1CCC(OCCF)CC1 [Compound 9e]	IC50	nM	3.9
O=C(c1cc(Cc2n[nH]c(=O)c3ccccc23)ccc1F)N1CC(OCCF)C1 [Compound 9b]	IC50	nM	7.5
O=C(c1cc(Cc2n[nH]c(=O)c3ccccc23)ccc1F)N1CC[C@H](OCCF)C1 [Compound 9d]	IC50	nM	6.8
O=C(c1cc(Cc2n[nH]c(=O)c3ccccc23)ccc1F)N1CC[C@@H](OCCF)C1 [Compound 9c]	IC50	nM	10.1
O=C(c1cc(Cc2n[nH]c(=O)c3ccccc23)ccc1F)N1CC2(CC(OCCF)C2)C1 [Compound 9a]	IC50	nM	10.7

src = paper PMC6378121
